Origin of the recorded values: patent US7405228B2

test system: E. faecium 367 LNZR; experiment: MIC determination, linezolid resistant E. faecium 367 LNZR; assay type: cell-based; settings: Enterococcus faecium, read-out: MIC E. faecium 367 LNZR
// reported MIC per item
Only the number, expressed in µg/mL, is required.

>  <Molecule>
CC1CN(c2ccc(N3C[C@H](CNC(N)=S)OC3=O)cc2F)CC/C1=C\C#N (stereo partly shown) [Example 68]

>  <MIC [µg/mL]>
3.12

$$$$
>  <Molecule>
CCC(C#N)=C1CCN(c2ccc(N3C[C@H](CNC(C)=S)OC3=O)cc2F)CC1 [Example 93]

>  <MIC [µg/mL]>
1.56

$$$$

Query string: Quote MIC reported for CC(=O)NC[C@H]1CN(c2ccc(N3CC/C(=C/C#N)C(F)C3)c(F)c2)C(=O)O1 (stereo partly shown) [56 (Z)] please.
Result string: 6.25

----------
// reported melting point per item

>  <Compound>
CS(=O)(=O)OC[C@H]1CN(c2ccc(N3CCC(CC#N)CC3)cc2)C(=O)O1 [Example 125]

>  <Parameter>
melting point

>  <Value Observed>
114 to 116 °C

$$$$

Query string: Quote melting point reported for CC(C#N)=C1CCN(c2ccc(N3C[C@H](CNC(=O)CN)OC3=O)cc2F)CC1 [Example 76] please.
Result string: 141 to 142 °C

Query string: Quote melting point reported for CC(=O)NC[C@H]1CN(c2ccc(N3CC/C(=C(/C)C#N)C(F)C3)c(F)c2)C(=O)O1 (some centres unmarked) [Example 85] please.
Result string: 148 to 150 °C

Query string: Quote melting point reported for CC(C#N)=C1CCN(c2ccc(N3C[C@H](CNC(=O)CC#N)OC3=O)cc2F)CC1 [Example 75] please.
Result string: 194 to 196 °C

----------
// reported melting point per item

Here are 5 compounds together with their reported answers.
>  <Compound>
N#CCC1CCN(c2ccc(N3CC(Cn4cc(C(N)=O)nn4)OC3=O)cc2F)CC1 (stereo in doubt)

>  <melting point>
248 to 250 °C

$$$$
>  <Compound>
CS(=O)(=O)OC[C@H]1CN(c2ccc(N3CCC(C(C#N)C(N)=O)CC3)c(F)c2)C(=O)O1 (stereo partly shown)

>  <melting point>
220 to 222 °C

$$$$
>  <Compound>
CC(C)COC(=O)NC[C@H]1CN(c2ccc(N3CC=C(CC#N)C(F)C3)c(F)c2)C(=O)O1 (stereo partly shown)

>  <melting point>
146 to 148 °C

$$$$
>  <Compound>
N#CC=C1CCN(c2ccc(N3C[C@H](CNC(=O)C(F)F)OC3=O)cc2F)CC1

>  <melting point>
162 to 164 °C

$$$$
>  <Compound>
N#CC=C1CCN(c2ccc(N3C[C@H](CN4C(=O)c5ccccc5C4=O)OC3=O)cc2F)CC1

>  <melting point>
183 to 185 °C

$$$$

Query string: Quote melting point reported for N#CC=C1CCN(c2ccc(N3C[C@H](CNC(=O)CC#N)OC3=O)cc2F)CC1 please.
Result string: 150 to 152 °C

Query string: Quote melting point reported for CCOC(=O)c1cn(CC2CN(c3ccc(N4CCC(=CC#N)CC4)c(F)c3)C(=O)O2)nn1 (stereo in doubt) please.
Result string: 164 to 166 °C

----------
Parameter: melting point

Here are 5 compounds together with their reported answers.
>  <Compound>
CS(=O)(=O)OC[C@H]1CN(c2ccc(N3CCC(=CC#N)CC3)c(F)c2)C(=O)O1 [Example 54]

>  <melting point>
126 to 128 °C

$$$$
>  <Compound>
CC1CN(c2ccc(N3C[C@H](CNc4nccs4)OC3=O)cc2F)CC/C1=C\C#N (stereo partly shown) [Example 66]

>  <melting point>
75 to 77 °C

$$$$
>  <Compound>
CS(=O)(=O)OC[C@H]1CN(c2ccc(N3CCC(C(C#N)c4nccs4)CC3)c(F)c2)C(=O)O1 (stereo partly shown) [Example 157]

>  <melting point>
64 to 66 °C

$$$$
>  <Compound>
CS(=O)(=O)OC[C@H]1CN(c2ccc(N3CCC(C(C#N)C(=O)O)CC3)c(F)c2)C(=O)O1 (stereo partly shown) [Example 155]

>  <melting point>
108 to 110 °C

$$$$
>  <Compound>
CC(=O)NC[C@H]1CN(c2ccc(N3CC/C(=C(\C)C#N)C(F)C3)c(F)c2)C(=O)O1 (stereo partly shown) [Example 87]

>  <melting point>
148 to 150 °C

$$$$

Query string: Quote melting point reported for CC(=O)NC[C@H]1CN(c2ccc(N3CCC(C(C#N)n4ccnc4)CC3)c(F)c2)C(=O)O1 (stereo partly shown) [Example 136] please.
Result string: 210 to 212 °C

Query string: Quote melting point reported for CCC(C#N)=C1CCN(c2ccc(N3C[C@H](CNC(=O)C(Cl)(Cl)Cl)OC3=O)cc2F)CC1 [Example 91] please.
Result string: 150 to 152 °C

Query string: Quote melting point reported for CC(=O)NC[C@H]1CN(c2ccc(N3CCC(C(C#N)COS(C)(=O)=O)CC3)c(F)c2)C(=O)O1 (stereo partly shown) [Example 134] please.
Result string: 136 to 138 °C

Query string: Quote melting point reported for CC(=O)NC[C@H]1CN(c2ccc(N3CC=C(CC#N)CC3)c(F)c2)C(=O)O1 [Example 159] please.
Result string: 132 °C

Query string: Quote melting point reported for CC1CN(c2ccc(N3C[C@H](CNC=O)OC3=O)cc2F)CC/C1=C\C#N (stereo partly shown) [Example 62] please.
Result string: 98 to 100 °C

Query string: Quote melting point reported for CC1CN(c2ccc(N3C[C@H](CNC(=O)CC#N)OC3=O)cc2F)CC/C1=C\C#N (stereo partly shown) [Example 65] please.
Result string: 102 to 104 °C

Query string: Quote melting point reported for CC(C)(C)C(=O)OCC(=O)NC[C@H]1CN(c2ccc(N3CCC(=CC#N)CC3)c(F)c2)C(=O)O1 [Example 14] please.
Result string: 91 to 93 °C

Query string: Quote melting point reported for CS(=O)(=O)OC[C@H]1CN(c2ccc(N3CCC(C(C#N)CO)CC3)c(F)c2)C(=O)O1 (stereo partly shown) [Example 154] please.
Result string: 144 to 146 °C

Query string: Quote melting point reported for CC(C#N)=C1CCN(c2ccc(N3C[C@H](CNC=O)OC3=O)cc2F)CC1 [Example 73] please.
Result string: 188 to 190 °C

Query string: Quote melting point reported for CS(=O)(=O)OC[C@H]1CN(c2ccc(N3CC/C(=C\C#N)C(F)C3)c(F)c2)C(=O)O1 (stereo partly shown) [Example 59] please.
Result string: 116 to 118 °C

Query string: Quote melting point reported for C=CCN(C#N)C[C@H]1CN(c2ccc(N3CCC(=CC#N)CC3)c(F)c2)C(=O)O1 [Example 22] please.
Result string: 111 to 113 °C

----------
System: E. faecium 367 LNZR
Test: MIC determination, linezolid resistant E. faecium 367 LNZR
Type: cell-based
Conditions: Enterococcus faecium, read-out: MIC E. faecium 367 LNZR
Protocol: E. faecium ATCC 19434 strain at a cell density of 10^6/ml was inoculated in Mueller Hinton broth medium containing Linezolid at a concentration of 5 and 7.5 mcg/ml. The stationary culture was incubated at 37° C. and inspected at every 24 hours to assess the formation of turbidity due to the onset of bacterial growth. […] MICs of resistant mutant E. faecium 367 LNZR and parent strain E. faecium ATCC 19434 were determined for linezolid by NCCLS method. […]
// reported MIC per item
Only the number, expressed in µg/mL, is required.

Here are 8 compounds together with their reported answers.
>  <Compound>
C#CCC(C#N)=C1CCN(c2ccc(N3C[C@H](CNC(C)=O)OC3=O)cc2F)CC1

>  <MIC / µg/mL>
3.12

$$$$
>  <Compound>
N#C/C=C1\CCN(c2ccc(N3C[C@H](CNC(=O)C(F)F)OC3=O)cc2F)CC1F (some centres unmarked)

>  <MIC / µg/mL>
6.25

$$$$
>  <Compound>
CC(=O)NC[C@H]1CN(c2ccc(N3CCC(=C(C)C#N)CC3)c(F)c2)C(=O)O1

>  <MIC / µg/mL>
6.25

$$$$
>  <Compound>
CC(=S)NC[C@H]1CN(c2ccc(N3CC/C(=C\C#N)C(F)C3)c(F)c2)C(=O)O1 (some centres unmarked)

>  <MIC / µg/mL>
1.56

$$$$
>  <Compound>
COC(=S)NC[C@H]1CN(c2ccc(N3CCC(=CC#N)CC3)c(F)c2)C(=O)O1

>  <MIC / µg/mL>
1.56

$$$$
>  <Compound>
COC(=S)NC[C@H]1CN(c2ccc(N3CC/C(=C\C#N)C(C)C3)c(F)c2)C(=O)O1 (some centres unmarked)

>  <MIC / µg/mL>
3.12

$$$$
>  <Compound>
CC(=O)NC[C@H]1CN(c2ccc(N3CC/C(=C\C#N)C(F)C3)c(F)c2)C(=O)O1 (some centres unmarked) [56 (E)]

>  <MIC / µg/mL>
6.25

$$$$
>  <Compound>
CC(=O)NC[C@H]1CN(c2ccc(N3CCC(=CC#N)CC3)cc2)C(=O)O1

>  <MIC / µg/mL>
25

$$$$

Query string: Quote MIC reported for CSC(C#N)=C1CCN(c2ccc(N3C[C@H](CNC(C)=O)OC3=O)cc2F)CC1 please.
Result string: 3.12
